- system-name: T1, human OPGbp [143-317] (human, UniProt O14788 143-317)
- T1 construct: also called OPGL
- T1 sequence (looked up): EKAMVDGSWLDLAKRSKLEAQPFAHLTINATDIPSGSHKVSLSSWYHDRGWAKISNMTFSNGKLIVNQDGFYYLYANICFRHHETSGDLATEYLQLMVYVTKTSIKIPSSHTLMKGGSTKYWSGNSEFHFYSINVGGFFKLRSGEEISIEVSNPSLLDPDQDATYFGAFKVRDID
- method-description: SPR (BIAcore), immobilized OPGbp [143-317]
measured-metric: log10 of koff (log10 of the value in s⁻¹)
Hey, these are logged values: log10 of koff, s⁻¹ being the unit before logging.

Examples from the recorded data:
>>> obs_value("“AT” antibody variant S97L (heavy chain CDR3) (antibody, name in Kabat numbering, V domains shown, not shown: human IgG1 CH1, hinge, CH2 and CH3) VH: QVQLVQSGAEVRKPGASVKVSCKASGYDFSNYAIHWVRQAPGQRLEWMGWINAGNGNTKFSQKFQGRITVTRDTAASTAYMELRSLRSEDTAVYYCARDSLNMVRGIIIAYYFDYWGQGTLVTVSS VL: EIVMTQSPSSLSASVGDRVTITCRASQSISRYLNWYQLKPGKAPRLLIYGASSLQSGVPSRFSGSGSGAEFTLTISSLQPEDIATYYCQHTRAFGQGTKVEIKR")
-3.16
>>> obs_value("“AT” antibody variant S97H (heavy chain CDR3) (antibody, name in Kabat numbering, V domains shown, not shown: human IgG1 CH1, hinge, CH2 and CH3) VH: QVQLVQSGAEVRKPGASVKVSCKASGYDFSNYAIHWVRQAPGQRLEWMGWINAGNGNTKFSQKFQGRITVTRDTAASTAYMELRSLRSEDTAVYYCARDSHNMVRGIIIAYYFDYWGQGTLVTVSS VL: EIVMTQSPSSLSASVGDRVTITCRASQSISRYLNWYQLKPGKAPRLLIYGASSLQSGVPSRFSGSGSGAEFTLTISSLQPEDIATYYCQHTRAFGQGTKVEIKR")
-2.61
>>> obs_value("“AT” antibody variant S97M (heavy chain CDR3) (antibody, name in Kabat numbering, V domains shown, not shown: human IgG1 CH1, hinge, CH2 and CH3) VH: QVQLVQSGAEVRKPGASVKVSCKASGYDFSNYAIHWVRQAPGQRLEWMGWINAGNGNTKFSQKFQGRITVTRDTAASTAYMELRSLRSEDTAVYYCARDSMNMVRGIIIAYYFDYWGQGTLVTVSS VL: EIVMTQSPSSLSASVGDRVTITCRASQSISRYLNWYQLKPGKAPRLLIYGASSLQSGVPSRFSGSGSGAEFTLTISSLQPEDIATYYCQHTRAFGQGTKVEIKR")
-1.54
>>> obs_value("“AT” antibody variant S97V (heavy chain CDR3) (antibody, name in Kabat numbering, V domains shown, not shown: human IgG1 CH1, hinge, CH2 and CH3) VH: QVQLVQSGAEVRKPGASVKVSCKASGYDFSNYAIHWVRQAPGQRLEWMGWINAGNGNTKFSQKFQGRITVTRDTAASTAYMELRSLRSEDTAVYYCARDSVNMVRGIIIAYYFDYWGQGTLVTVSS VL: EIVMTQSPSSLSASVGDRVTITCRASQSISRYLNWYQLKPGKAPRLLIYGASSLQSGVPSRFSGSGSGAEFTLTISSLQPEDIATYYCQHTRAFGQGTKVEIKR")
-2.45
>>> obs_value("“AT” antibody variant S97P (heavy chain CDR3) (antibody, name in Kabat numbering, V domains shown, not shown: human IgG1 CH1, hinge, CH2 and CH3) VH: QVQLVQSGAEVRKPGASVKVSCKASGYDFSNYAIHWVRQAPGQRLEWMGWINAGNGNTKFSQKFQGRITVTRDTAASTAYMELRSLRSEDTAVYYCARDSPNMVRGIIIAYYFDYWGQGTLVTVSS VL: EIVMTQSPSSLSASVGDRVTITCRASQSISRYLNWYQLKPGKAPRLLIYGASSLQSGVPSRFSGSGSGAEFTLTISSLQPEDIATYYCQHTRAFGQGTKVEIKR")
-1.57
>>> obs_value("“AT” antibody variant S97R (heavy chain CDR3) (antibody, name in Kabat numbering, V domains shown, not shown: human IgG1 CH1, hinge, CH2 and CH3) VH: QVQLVQSGAEVRKPGASVKVSCKASGYDFSNYAIHWVRQAPGQRLEWMGWINAGNGNTKFSQKFQGRITVTRDTAASTAYMELRSLRSEDTAVYYCARDSRNMVRGIIIAYYFDYWGQGTLVTVSS VL: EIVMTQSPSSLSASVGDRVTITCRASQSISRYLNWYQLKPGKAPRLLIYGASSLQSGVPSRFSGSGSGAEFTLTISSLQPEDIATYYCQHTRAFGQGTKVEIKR")
-0.93
>>> obs_value("“AT” antibody variant S97N (heavy chain CDR3) (antibody, name in Kabat numbering, V domains shown, not shown: human IgG1 CH1, hinge, CH2 and CH3) VH: QVQLVQSGAEVRKPGASVKVSCKASGYDFSNYAIHWVRQAPGQRLEWMGWINAGNGNTKFSQKFQGRITVTRDTAASTAYMELRSLRSEDTAVYYCARDSNNMVRGIIIAYYFDYWGQGTLVTVSS VL: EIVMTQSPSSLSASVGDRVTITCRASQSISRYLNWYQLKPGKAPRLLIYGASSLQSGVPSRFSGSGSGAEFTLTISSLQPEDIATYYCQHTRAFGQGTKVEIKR")
-2.39

Now consider a different binder.
**Q:** Quick one: log10 of koff of “AT” antibody variant S97K (heavy chain CDR3) (antibody, name in Kabat numbering, V domains shown, not shown: human IgG1 CH1, hinge, CH2 and CH3) VH: QVQLVQSGAEVRKPGASVKVSCKASGYDFSNYAIHWVRQAPGQRLEWMGWINAGNGNTKFSQKFQGRITVTRDTAASTAYMELRSLRSEDTAVYYCARDSKNMVRGIIIAYYFDYWGQGTLVTVSS VL: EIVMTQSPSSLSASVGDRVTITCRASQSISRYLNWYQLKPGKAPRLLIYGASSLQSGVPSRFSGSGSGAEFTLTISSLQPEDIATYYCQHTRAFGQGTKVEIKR ?
**A:** -2.24
